The values you see were collected from patent US20140294731A1.

Target: T1, T3.30: Biotin-LC linker-GVYKS[PO3H2]PVVSGDTS[PO3H2]PRHL-NH2 (reading uncertain; also: printed as Biotin-LC linker-GVYKS[PO3H2]PVVSGDTS[PO3H2]PRHL-NH2)
T1 construct: Human Tau 393-408 with an added N-terminal Gly; two lots used: MI89P9-P12-2 (64% pure) and MI89P9-P12-3 (87% pure); also called Phospho-tau peptide; phosphopeptide T3.30
T1 peptide: {Biotin-LC linker}-GVYK[pS]PVVSGDT[pS]PRHL-NH2
Test: SPR (Biacore X), T3.30 on streptavidin chip, antibody injected, 1:1 Langmuir fit; peptide lot 87% pure
Experimental: All SPR experiments were carried out on a Biacore X instrument (GE Healthcare). Sensor chip SA (Streptavidin derivatized carboxymethyl dextran) was purchased from GE Healthcare. Running buffer was PBS (Dulbecco's PBS, Sigma D8537). Non-covalently bound Streptavidin was firstly removed from the sensor surface by injecting 8 pulses (each ˜1 μL) of 16 mM NaOH (aq). […]
[ ]: non-standard residue; d: D form. The star is where a group is joined. Biotin = O=C1N[C@H]2[C@H](CS[C@H]2CCCCC(=O)*)N1; pS = N[C@@H](COP(=O)(O)O)C(=O)O; LC linker = not defined here
Observable: Kd

- Binder: "ACI-35-2G5-Ab2 (antibody, IgG2b, V domains shown, also called ACl-35-2G5-Ab2; ACl-35-2G5-AB2) VH: EVQLQQSGPELVKPGASVKISCKASGFTFTDYYMNWVKQSHGKSLEWIGDINPNNGGTSYHQKFKGKATLTVDKSSSTAYMELRSLTSEDSAVYYCVREGRFAYWGQGTLVTVSA VL: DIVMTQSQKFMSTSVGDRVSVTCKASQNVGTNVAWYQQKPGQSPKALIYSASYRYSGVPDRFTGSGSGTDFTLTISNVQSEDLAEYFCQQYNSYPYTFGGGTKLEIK"
  Observed value: "10 nM"

### Prompt If you can, please state the reported Kd value of ACI-35-2G5-Ab1 (antibody, IgG2a, V domains shown, also called ACl-35-2G5-Ab1; ACl-35-2G5-AB1) VH: QVQLKQSGAELVRPGASVKLSCKASGYTFTDYYINWVKQRPGQGLEWIARIYPGRGNIYYNEKFKGKATLTAEKSSSTAYMQLSSLTSEDSAVYFCARFWDVTYWGQGTLVTVSA VL: DVLMTQTPLSLPVSLGDQASISCRSSQSIVHSNGNTYLEWFLQKPGQSPKLLIYKVSNRFSGVPDRFSGSGSGTDFTLKISRVEAEDLGVYYCFQGSHVPYTFGGGTKLEIK .
### Response 70 nM

### Prompt If you can, please state the reported Kd value of ACI-35-4A6-Ab1 (antibody, IgG2b, V domains shown, also called ACl-35-4A6-Ab1; hybridoma A4-4A6-18) VH: QVQLQQPGAELLKPGASVKLSCKASGYTFTSYWMHWVKQRPGRGLEWIGRIDPNSDRTKYNEKFKRKATLTVDKSSSTAYMQLSSLTSEDSAVYYCARDDYAWFAYWGQGTLVTVSA VL: DVLMTQTPLSLPVSLGDQASISCRSSQSIVHSNGNTYLEWYLQKPGQSPKLLIYKLSNRFSGVPDRFSGSGSGTDFTLKISRVEAEDLGVYYCFQGSHVPPTFGGGTKLEIK .
### Response 15 nM

### Prompt If you can, please state the reported Kd value of ACI-35-2G5-Ab3 (antibody, IgG2b, V domains shown, Biotinylated (-BT) in the AlphaLISA and as detector in the Setup 1 ELISA; also called ACl-35-2G5-Ab3; ACl-35-2G5-AB3) VH: EVQLQQSGPELVKPGASVKISCKASGFTFTDYYMNWVKQSHGKSLEWIGDINPNNGGTSYHQKFKGKATLTVDKSSSTAYMELRSLTSEDSAVYYCVREGRFAYWGQGTLVTVSA VL: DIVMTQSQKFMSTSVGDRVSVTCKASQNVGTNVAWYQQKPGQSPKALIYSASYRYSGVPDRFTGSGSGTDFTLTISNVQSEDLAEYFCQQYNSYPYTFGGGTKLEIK .
### Response 2 nM
